System: S. pyogenes ATCC 19615
Assay: MIC/MBC broth microdilution, S. pyogenes
Format: cell-based, Streptococcus pyogenes
Settings: S. pyogenes, water additive EtOH
Residues, ends and D or L forms follow the SMILES beside them.
Label key: yes means MIC under 8 µg/mL; no means MIC of 8 µg/mL or more.

Completed entries (count: 3):
CC(C)C[C@H](NC(=O)[C@H](CCCNC(=N)N)NC(=O)OCc1ccccc1)C(=O)N[C@H](CNC(=O)C(=Cc1ccccc1)c1ccccc1)C(C)C [Compound A-164]; yes
CC(C)C[C@H](NC(=O)[C@H](CCCCNC(=N)N)NC(=O)OCc1ccccc1)C(=O)N[C@H](CNC(=O)/C=C/c1ccccc1)C(C)C [Compound A-134]; no
C=CCC(=O)NC[C@@H](NC(=O)[C@H](CC(C)C)NC(=O)[C@H](CCCNC(=N)N)NC(=O)OCc1ccccc1)C(C)C [Compound A-209]; no

Regarding CC(C)[C@H](NC(=O)[C@H](Cc1c[nH]cn1)NC(=O)[C@H](CCCNC(=N)N)NC(=O)OCc1ccccc1)C(=O)NCCc1ccccc1 [Compound A-219] (HELM PEPTIDE1{[O=C(OCc1ccccc1)[*:2]].R.H.V.[c1ccc(CCN[*:1])cc1]}$$$$V2.0) , kindly confirm whether its MIC is beneath 8 µg/mL.
no

Confirm or reject: MIC of Cc1ccccc1COC(=O)N[C@@H](CCCNC(=N)N)C(=O)N[C@@H](CC(C)C)C(=O)N[C@H](CNC(=O)/C=C/c1ccccc1)C(C)C [Compound A-210] lies strictly below 8 µg/mL
no

* * *

Exercise: for every item that follows, state its recorded MIC.
Tested on: S. agalactiae ATCC 27956
Assay: MIC/MBC broth microdilution, S. agalactiae
Assay type: cell-based, Streptococcus agalactiae
Settings: S. agalactiae, water additive EtOH
Residues, ends and D or L forms follow the SMILES beside them.

CC(C)[C@H](NC(=O)[C@H](Cc1c[nH]cn1)NC(=O)[C@H](CCCNC(=N)N)NC(=O)OCc1ccccc1)C(=O)NCCc1ccccc1 [Compound A-219] (HELM PEPTIDE1{[O=C(OCc1ccccc1)[*:2]].R.H.V.[c1ccc(CCN[*:1])cc1]}$$$$V2.0); > 512 µg/mL

Working through the 6 compounds below one at a time, give MIC for each.
1. CC(C)[C@@H](CNC(=O)/C=C/c1ccccc1)NC(=O)[C@H](Cc1c[nH]cn1)NC(=O)[C@H](CCCCN)NC(=O)OCc1ccccc1 [Compound A-174]
2. CC(C)C[C@H](NC(=O)[C@H](CCCNC(=N)N)NC(=O)OCc1ccccc1)C(=O)N[C@H](CNC(=O)C(=Cc1ccccc1)c1ccccc1)C(C)C [Compound A-164]
3. Cc1ccccc1COC(=O)N[C@@H](CCCNC(=N)N)C(=O)N[C@@H](CC(C)C)C(=O)N[C@H](CNC(=O)/C=C/c1ccccc1)C(C)C [Compound A-210]
4. CC(C)[C@H](NC(=O)[C@H](Cc1c[nH]cn1)NC(=O)[C@H](CCCCN)NC(=O)OCc1ccccc1)C(=O)NCCc1ccccc1 [Compound A-220] (HELM PEPTIDE1{[O=C(OCc1ccccc1)[*:2]].K.H.V.[c1ccc(CCN[*:1])cc1]}$$$$V2.0)
5. C=CCC(=O)NC[C@@H](NC(=O)[C@H](CC(C)C)NC(=O)[C@H](CCCNC(=N)N)NC(=O)OCc1ccccc1)C(C)C [Compound A-209]
6. CC(C)C[C@H](NC(=O)[C@H](CCCCNC(=N)N)NC(=O)OCc1ccccc1)C(=O)N[C@H](CNC(=O)/C=C/c1ccccc1)C(C)C [Compound A-134]

1. 256 µg/mL
2. 4 µg/mL
3. 32 µg/mL
4. 512 µg/mL
5. > 512 µg/mL
6. 32 µg/mL

* * *

Tested on: S. cohnii c.i.
Test: MIC/MBC broth microdilution, S. cohnii
Assay type: cell-based, Staphylococcus cohnii
Conditions: H2O
Residues, ends and D or L forms follow the SMILES beside them.
Give MIC for every item shown.
Give bare numbers, in µg/mL.

Use these answered entries as a reference point.
CC(C)[C@@H](CNC(=O)/C=C/c1ccccc1)NC(=O)[C@H](Cc1c[nH]cn1)NC(=O)[C@H](CCCCN)NC(=O)OCc1ccccc1 [Compound A-174]; 256
CC(C)[C@@H](CNC(=O)C(=Cc1ccccc1)c1ccccc1)NC(=O)[C@H](CCCNC(=N)N)NC(=O)[C@H](CCCCNC(=N)N)NC(=O)OCc1ccccc1 [Compound A-192]; 16
CC(C)[C@H](NC(=O)[C@H](Cc1c[nH]cn1)NC(=O)[C@H](CCCCN)NC(=O)OCc1ccccc1)C(=O)NCCc1ccccc1 [Compound A-220] (HELM PEPTIDE1{[O=C(OCc1ccccc1)[*:2]].K.H.V.[c1ccc(CCN[*:1])cc1]}$$$$V2.0); 256

Which MIC is listed for CC(C)[C@@H](CNC(=O)C(=Cc1ccccc1)c1ccccc1)NC(=O)[C@H](CCCNC(=N)N)NC(=O)[C@H](CCCNC(=N)N)NC(=O)OCc1ccccc1 [Compound A-179] ?
16

* * *

System: S. mutans c.i.
Test: MIC/MBC broth microdilution, S. mutans
Assay type: cell-based, Streptococcus mutans
Details: water additive DMSO
Residues, ends and D or L forms follow the SMILES beside them.
PARAMETER: MIC (µg/mL)
Give bare numbers, in µg/mL.

Field: example entries. Status: answers known.
CC(C)[C@@H](CNC(=O)C(=Cc1ccccc1)c1ccccc1)NC(=O)[C@H](Cc1c[nH]cn1)NC(=O)[C@H](CCCCNC(=N)N)NC(=O)OCc1ccccc1; 8
CC(C)C[C@H](NC(=O)[C@H](CCCNC(=N)N)NC(=O)OCc1ccccc1)C(=O)N[C@H](C(=O)NCCc1ccccc1)C(C)C [Compound A-196] (HELM PEPTIDE1{[O=C(OCc1ccccc1)[*:2]].R.L.V.[c1ccc(CCN[*:1])cc1]}$$$$V2.0); 32
CC(C)C[C@H](NC(=O)[C@H](CCCNC(=N)N)NC(=O)OCc1ccccc1)C(=O)N[C@H](CNC(=O)/C=C/c1ccccc1)C(C)C; 16

Pending compound:
Form field: reported MIC of `CC(C)C[C@H](NC(=O)[C@H](CCCCNC(=N)N)NC(=O)OCc1ccccc1)C(=O)N[C@H](CNC(=O)/C=C/c1ccccc1)C(C)C`
512

* * *

System: S. cohnii c.i.
Assay: MIC/MBC broth microdilution, S. cohnii
Type: cell-based, Staphylococcus cohnii
Conditions: water additive EtOH
Residues, ends and D or L forms follow the SMILES beside them.
PARAMETER: MIC (µg/mL)
Numbers only, in µg/mL.

For orientation, consider the following solved cases.
CC(C)[C@H](NC(=O)[C@H](Cc1c[nH]cn1)NC(=O)[C@H](CCCCN)NC(=O)OCc1ccccc1)C(=O)NCCc1ccccc1 [Compound A-220] (HELM PEPTIDE1{[O=C(OCc1ccccc1)[*:2]].K.H.V.[c1ccc(CCN[*:1])cc1]}$$$$V2.0); 256
CC(C)[C@@H](CNC(=O)C(=Cc1ccccc1)c1ccccc1)NC(=O)[C@H](CCCNC(=N)N)NC(=O)[C@H](CCCNC(=N)N)NC(=O)OCc1ccccc1; 32

// MIC lookup, key: `CC(C)C[C@H](NC(=O)[C@H](CCCCNC(=N)N)NC(=O)OCc1ccccc1)C(=O)N[C@H](CNC(=O)/C=C/c1ccccc1)C(C)C`
32

* * *

Tested on: E. coli ATCC 25922
Experiment: MIC/MBC broth microdilution, E. coli
Type: cell-based, Escherichia coli
Details: H2O
Residues, ends and D or L forms follow the SMILES beside them.
PARAMETER: MBC (µg/mL)
Numbers only, in µg/mL.

Some solved cases for reference:
CC(C)[C@H](NC(=O)[C@H](Cc1c[nH]cn1)NC(=O)[C@H](CCCCN)NC(=O)OCc1ccccc1)C(=O)NCCc1ccccc1 [Compound A-220] (HELM PEPTIDE1{[O=C(OCc1ccccc1)[*:2]].K.H.V.[c1ccc(CCN[*:1])cc1]}$$$$V2.0); 512
CC(C)[C@@H](CNC(=O)C(=Cc1ccccc1)c1ccccc1)NC(=O)[C@H](Cc1c[nH]cn1)NC(=O)[C@H](CCCCNC(=N)N)NC(=O)OCc1ccccc1; 256

List MBC for every entry below, keeping the order given.
1. CC(C)[C@@H](CNC(=O)C(=Cc1ccccc1)c1ccccc1)NC(=O)[C@H](Cc1c[nH]cn1)NC(=O)[C@H](CCCNC(=N)N)NC(=O)OCc1ccccc1
2. CC[C@@H](CNC(=O)/C=C/c1ccccc1)NC(=O)[C@H](CC(C)C)NC(=O)[C@H](CCCNC(=N)N)NC(=O)OCc1ccccc1

256
256

* * *

Test system: S. mutans c.i.
Experiment: MIC/MBC broth microdilution, S. mutans
Format: cell-based, Streptococcus mutans
Details: H2O
Residues, ends and D or L forms follow the SMILES beside them.
PARAMETER: MIC

Below are 5 molecules. Give each one its MIC.
1. CC(C)C[C@H](NC(=O)[C@H](CCCNC(=N)N)NC(=O)OCc1ccccc1)C(=O)N[C@H](CN)C(C)C [Compound A-197]
2. CC(C)[C@H](NC(=O)[C@H](Cc1c[nH]cn1)NC(=O)[C@H](CCCCN)NC(=O)OCc1ccccc1)C(=O)NCCc1ccccc1 [Compound A-220] (HELM PEPTIDE1{[O=C(OCc1ccccc1)[*:2]].K.H.V.[c1ccc(CCN[*:1])cc1]}$$$$V2.0)
3. CC(C)[C@H](NC(=O)[C@H](Cc1c[nH]cn1)NC(=O)[C@H](CCCNC(=N)N)NC(=O)OCc1ccccc1)C(=O)NCCc1ccccc1 [Compound A-219] (HELM PEPTIDE1{[O=C(OCc1ccccc1)[*:2]].R.H.V.[c1ccc(CCN[*:1])cc1]}$$$$V2.0)
4. CC(C)[C@H](NC(=O)[C@H](CCCNC(=N)N)NC(=O)[C@H](CCCNC(=N)N)NC(=O)OCc1ccccc1)C(=O)NCCc1ccccc1 [Compound A-221] (HELM PEPTIDE1{[O=C(OCc1ccccc1)[*:2]].R.R.V.[c1ccc(CCN[*:1])cc1]}$$$$V2.0)
5. Cc1ccccc1COC(=O)N[C@@H](CCCNC(=N)N)C(=O)N[C@@H](CC(C)C)C(=O)N[C@H](CNC(=O)/C=C/c1ccccc1)C(C)C [Compound A-210]

1: 256 µg/mL; 2: 256 µg/mL; 3: > 512 µg/mL; 4: > 512 µg/mL; 5: > 512 µg/mL

Return reported MIC values for all items listed beneath this line.
1. CC(C)[C@@H](CNC(=O)C(=Cc1ccccc1)c1ccccc1)NC(=O)[C@H](CCCNC(=N)N)NC(=O)[C@H](CCCNC(=N)N)NC(=O)OCc1ccccc1 [Compound A-179]
2. CC[C@@H](CNC(=O)/C=C/c1ccccc1)NC(=O)[C@H](CC(C)C)NC(=O)[C@H](CCCNC(=N)N)NC(=O)OCc1ccccc1 [Compound A-213]
3. CC(C)C[C@H](NC(=O)[C@H](CCCNC(=N)N)NC(=O)OCc1ccccc1)C(=O)N[C@H](CNC(=O)C(=Cc1ccccc1)c1ccccc1)C(C)C [Compound A-164]
4. CC(C)[C@@H](CNC(=O)C(=Cc1ccccc1)c1ccccc1)NC(=O)[C@H](CCCNC(=N)N)NC(=O)[C@H](CCCCNC(=N)N)NC(=O)OCc1ccccc1 [Compound A-192]
5. CC(C)[C@@H](CNC(=O)C(=Cc1ccccc1)c1ccccc1)NC(=O)[C@H](Cc1c[nH]cn1)NC(=O)[C@H](CCCNC(=N)N)NC(=O)OCc1ccccc1 [Compound A-176]
6. CC(C)[C@@H](CNC(=O)/C=C/c1ccccc1)NC(=O)[C@H](Cc1c[nH]cn1)NC(=O)[C@H](CCCCN)NC(=O)OCc1ccccc1 [Compound A-174]

1. > 512 µg/mL
2. 4 µg/mL
3. > 512 µg/mL
4. > 512 µg/mL
5. 32 µg/mL
6. > 512 µg/mL
